Cited source for all entries: patent US20110195911A1

Tested On: Insulin-like growth factor 1 receptor (IGF1R) (UniProt P08069 31-1367, limits assumed)
Sequence (P08069 31-1367 limits assumed): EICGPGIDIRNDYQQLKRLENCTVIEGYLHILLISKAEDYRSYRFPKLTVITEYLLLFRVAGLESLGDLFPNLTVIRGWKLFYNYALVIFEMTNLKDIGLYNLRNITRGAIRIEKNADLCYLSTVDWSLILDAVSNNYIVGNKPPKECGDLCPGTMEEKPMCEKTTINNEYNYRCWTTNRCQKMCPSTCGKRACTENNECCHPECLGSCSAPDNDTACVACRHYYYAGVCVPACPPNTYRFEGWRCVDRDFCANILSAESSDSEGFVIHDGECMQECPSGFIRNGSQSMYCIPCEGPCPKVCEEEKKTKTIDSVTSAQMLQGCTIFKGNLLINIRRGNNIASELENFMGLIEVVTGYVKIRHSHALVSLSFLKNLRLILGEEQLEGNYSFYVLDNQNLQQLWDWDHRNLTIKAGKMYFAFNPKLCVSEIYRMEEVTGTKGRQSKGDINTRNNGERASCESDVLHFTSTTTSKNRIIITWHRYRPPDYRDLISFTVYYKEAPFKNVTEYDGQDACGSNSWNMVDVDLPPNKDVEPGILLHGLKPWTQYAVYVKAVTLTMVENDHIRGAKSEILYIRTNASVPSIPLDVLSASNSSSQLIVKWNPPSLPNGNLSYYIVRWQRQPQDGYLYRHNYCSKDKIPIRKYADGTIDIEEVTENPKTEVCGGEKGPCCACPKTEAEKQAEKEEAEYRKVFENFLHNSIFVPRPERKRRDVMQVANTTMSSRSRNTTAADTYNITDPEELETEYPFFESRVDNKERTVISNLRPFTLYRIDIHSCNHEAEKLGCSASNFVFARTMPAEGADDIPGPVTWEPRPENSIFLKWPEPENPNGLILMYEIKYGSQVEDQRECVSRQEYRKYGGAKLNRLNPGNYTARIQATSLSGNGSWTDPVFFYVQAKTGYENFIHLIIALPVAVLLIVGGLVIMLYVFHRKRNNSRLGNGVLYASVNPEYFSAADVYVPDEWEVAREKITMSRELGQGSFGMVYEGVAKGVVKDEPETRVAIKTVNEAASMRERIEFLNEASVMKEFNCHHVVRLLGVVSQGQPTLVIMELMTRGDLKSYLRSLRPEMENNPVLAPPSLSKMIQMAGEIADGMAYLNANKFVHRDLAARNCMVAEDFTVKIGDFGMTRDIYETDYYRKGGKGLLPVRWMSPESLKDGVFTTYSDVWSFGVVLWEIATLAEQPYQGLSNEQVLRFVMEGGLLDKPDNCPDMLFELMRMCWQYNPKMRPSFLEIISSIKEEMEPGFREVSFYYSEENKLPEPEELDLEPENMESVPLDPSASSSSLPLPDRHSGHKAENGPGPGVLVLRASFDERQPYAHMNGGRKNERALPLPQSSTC
Assay Text: cell-based or functional assay
[ ]: non-standard residue; d: D form. The star is where a group is joined. Palmitoyl = CCCCCCCCCCCCCCCC(=O)*
Quantity Measured: TGI (µM), MTT assay, MCF-7 cells
Give the number; µM is assumed, so skip it.

Fill in the blank: the reported TGI (µM), MTT assay, MCF-7 cells of Palmitoyl-[dV][dS][dA][dY][dL][dV]G[dN]G[dL][dR][dS][dN][dN][dR]-NH2 (SMILES CCCCCCCCCCCCCCCC(=O)N[C@@H](C(=O)N[C@H](CO)C(=O)N[C@H](C)C(=O)N[C@H](Cc1ccc(O)cc1)C(=O)N[C@H](CC(C)C)C(=O)N[C@@H](C(=O)NCC(=O)N[C@H](CC(N)=O)C(=O)NCC(=O)N[C@H](CC(C)C)C(=O)N[C@H](CCCNC(=N)N)C(=O)N[C@H](CO)C(=O)N[C@H](CC(N)=O)C(=O)N[C@H](CC(N)=O)C(=O)N[C@H](CCCNC(=N)N)C(N)=O)C(C)C)C(C)C) [peptide 21 (Pal-VSAYLVGNGLRSNNR-NH2)] is ____. 0.1
